Test system: Salmonella typhimurium (ATCC 13311)
Test: Antibacterial microdilution (MIC/MBC)
Format: cell-based
Conditions: Salmonella enterica; S.t. (S. typhimurium); read-out: MIC
Field: label. Allowed values: Condition met (MIC < 30 µg/mL) or Condition not met (MIC >= 30 µg/mL).

- Compound: "COC(=O)c1[nH]c2ccccc2c1/C=C1\\SC(=S)N(c2ccc(O)cc2)C1=O"
  Class Assignment: "Condition not met"
- Compound: "COC(=O)c1[nH]c2ccc(F)cc2c1/C=C1\\SC(=S)N(C(C(=O)O)C(C)C)C1=O (stereo not drawn)"
  Class Assignment: "Condition met"
- Compound: "COC(=O)c1[nH]c2ccccc2c1/C=C1\\SC(=S)N(c2cccc(O)c2)C1=O"
  Class Assignment: "Condition met"
- Compound: "COC(=O)c1[nH]c2ccccc2c1/C=C1\\SC(=S)N(CCCN2CCOCC2)C1=O"
  Class Assignment: "Condition met"
- Compound: "COC(=O)c1[nH]c2ccccc2c1/C=C1\\SC(=S)N(CCCCCC(=O)O)C1=O"
  Class Assignment: "Condition met"
- Compound: "CC1(C)S[C@@H]2[C@H](NC(=O)[C@H](N)c3ccccc3)C(=O)N2[C@H]1C(=O)O [Ampicillin, reference compound]"
  Class Assignment: "Condition not met"
- Compound: "COC(=O)c1[nH]c2ccccc2c1/C=C1\\SC(=S)N(CC(=O)O)C1=O"
  Class Assignment: "Condition met"
- Compound: "[H]/N=C(/N)N[C@H]1[C@H](O)[C@@H](O)[C@H](O[C@@H]2O[C@@H](C)[C@](O)(C=O)[C@H]2O[C@@H]2O[C@@H](CO)[C@H](O)[C@@H](O)[C@@H]2NC)[C@@H](N/C(N)=N\\[H])[C@@H]1O [Streptomycin, reference compound]"
  Class Assignment: "Condition not met"
- Compound: "COC(=O)c1[nH]c2ccc(F)cc2c1/C=C1\\SC(=S)N(C)C1=O"
  Class Assignment: "Condition not met"
- Compound: "COC(=O)c1[nH]c2ccccc2c1/C=C1\\SC(=S)N(Cc2ccco2)C1=O"
  Class Assignment: "Condition met"
- Compound: "COC(=O)c1[nH]c2ccccc2c1/C=C1\\SC(=S)N(c2ccc(C(=O)O)cc2)C1=O"
  Class Assignment: "Condition met"
- Compound: "COC(=O)c1[nH]c2ccc(F)cc2c1/C=C1\\SC(=S)N(c2ccc(O)cc2)C1=O"
  Class Assignment: "Condition not met"
